The origin of these recorded values is the supplement of paper PMC11208160.

test: recombinant UMI read abundance after kanamycin selection (control-corrected) (log10(CPM+1)); higher = more efficient recombination; extreme values may be limits of the assay; sequences stand for … in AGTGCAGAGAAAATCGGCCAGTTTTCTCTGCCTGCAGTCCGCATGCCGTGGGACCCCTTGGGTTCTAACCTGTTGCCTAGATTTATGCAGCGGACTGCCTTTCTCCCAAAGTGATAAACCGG…AGGTTGGTTTCACT; site = the 11-nt donor;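 note: IS621 bridge recombinase in Escherichia coli cells against a fixed T5 target plasmid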
value-kind: recombinant UMI read abundance (log10)
Just the number, please, no unit after it.

Give the measured recombinant UMI read abundance (log10) of CGAGAACCATGGACCGGTTTTCCCGGTAATCCGTATTTGGG (site CGAGTACCTCC) .
0.00635

Please do the same for CCTGGTGCATGGACCGGTTTTCCCGGTAATCCGTATTTGAT (site CCTGGTGCTAT) as well.
0.494

Please do the same for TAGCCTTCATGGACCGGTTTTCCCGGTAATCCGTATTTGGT (site TAGCCTTCTAA) as well.
0.0101

Please do the same for TCACGGACATGGACCGGTTTTCCCGGTAATCCGTATTTGCT (site TCACGGACTAG) as well.
1.43

Please do the same for CGATAAACATGGACCGGTTTTCCCGGTAATCCGTATTTGCT (site CGATAAACTAG) as well.
2.83

Please do the same for GCTTCCCCATGGACCGGTTTTCCCGGTAATCCGTATTTGAT (site GCTTCCCCTAT) as well.
0.569

Please do the same for TCAGATTCATGGACCGGTTTTCCCGGTAATCCGTATTTGGA (site TCAGATTCTTC) as well.
1.34

Please do the same for CCATCAGCATGGACCGGTTTTCCCGGTAATCCGTATTTGCT (site CCATCAGCTAG) as well.
0.375

Please do the same for TGCTCGGCATGGACCGGTTTTCCCGGTAATCCGTATTTGAT (site TGCTCGGCTAT) as well.
0.54

Please do the same for CTGGAAACATGGACCGGTTTTCCCGGTAATCCGTATTTGCT (site CTGGAAACTCG) as well.
0.534

Please do the same for AGAAACGCATGGACCGGTTTTCCCGGTAATCCGTATTTGCT (site AGAAAGGCTAG) as well.
0

Please do the same for GGACAGTCATGGACCGGTTTTCCCGGTAATCCGTATTTGTC (site GGACAGTCTGA) as well.
3.04

Please do the same for ATTCTCTCATGGACCGGTTTTCCCGGTAATCCGTATTTGTA (site ATTCTCTCTTA) as well.
2.35

Please do the same for CTGCTCTCATGGACCGGTTTTCCCGGTAATCCGTATTTGTA (site CTCCTCTCTTA) as well.
0.876

Please do the same for AGAAACGCATGGACCGGTTTTCCCGGTAATCCGTATTTGCT (site AGAAATGCTAG) as well.
0

Please do the same for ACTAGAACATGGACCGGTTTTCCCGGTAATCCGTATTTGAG (site ACTGGAACTCT) as well.
0.3

Please do the same for GCGAAGCCATGGACCGGTTTTCCCGGTAATCCGTATTTGTT (site GCGAAGCCTAA) as well.
1.14

Please do the same for GACCAACCATGGACCGGTTTTCCCGGTAATCCGTATTTGGT (site GACTAACCTAC) as well.
0.00842

Please do the same for CAAGTCGCATGGACCGGTTTTCCCGGTAATCCGTATTTGGG (site CAAGTCGCTCC) as well.
0.908

Please do the same for CCCTAGCCATGGACCGGTTTTCCCGGTAATCCGTATTTGCA (site CCCTAGCCTAG) as well.
0

Please do the same for AATTTGGCATGGACCGGTTTTCCCGGTAATCCGTATTTGTG (site CATTTGGCTCA) as well.
0.00721

Please do the same for TATGAGCCATGGACCGGTTTTCCCGGTAATCCGTATTTGGA (site TATGAGCCTTC) as well.
0.00722

Please do the same for AGCTTGCCATGGACCGGTTTTCCCGGTAATCCGTATTTGAT (site AGCTTGCCTAT) as well.
0.0115

Please do the same for CTCCTTACATGGACCGGTTTTCCCGGTAATCCGTATTTGAG (site CTCCGTACTCT) as well.
0

Please do the same for ACTAGCGCATGGACCGGTTTTCCCGGTAATCCGTATTTGGT (site ACTAGAGCTAC) as well.
0.428

Please do the same for GTTGGAACATGGACCGGTTTTCCCGGTAATCCGTATTTGGC (site GTTAGAACTGC) as well.
1.13

Please do the same for GCAAAAGCATGGACCGGTTTTCCCGGTAATCCGTATTTGCC (site GCAAAAGCTGG) as well.
0.282

Please do the same for CCAGGTGCATGGACCGGTTTTCCCGGTAATCCGTATTTGCT (site CCAGGTGCTAA) as well.
0.208

Please do the same for TAAGGGCCATGGACCGGTTTTCCCGGTAATCCGTATTTGAG (site TAAGGGCCTCT) as well.
0.221

Please do the same for ATGGTATCATGGACCGGTTTTCCCGGTAATCCGTATTTGAC (site CTAGTATCTGT) as well.
2.1

Please do the same for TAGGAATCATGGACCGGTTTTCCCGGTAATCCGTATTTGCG (site TTGGAATCTCG) as well.
1.47

Please do the same for TCATACTCATGGACCGGTTTTCCCGGTAATCCGTATTTGCC (site TCATACTCTTG) as well.
0

Please do the same for CGTACACCATGGACCGGTTTTCCCGGTAATCCGTATTTGAC (site GGTACACCTGT) as well.
0

Please do the same for GCCACAGCATGGACCGGTTTTCCCGGTAATCCGTATTTGCT (site GCCACAGCTAG) as well.
1.2

Please do the same for GCTACCGCATGGACCGGTTTTCCCGGTAATCCGTATTTGCA (site GCTACCGCTTG) as well.
2.13

Please do the same for GCAGTCTCATGGACCGGTTTTCCCGGTAATCCGTATTTGCA (site ACAGTATCTTG) as well.
2.38
